Where do the numbers come from? From the supplement of paper PMC12042874.

Exercise: state measured amyloid nucleation score for each of the substances provided.
measurement_notes: amyloid nucleation score (Sup35N fusion, yeast selection) (log enrichment); library NNK1; higher = more nucleation; inactive = no reads after selection;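 further: zero at mode of non-aggregating sequences after 7 days selection at 30°C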
Keep it simple and answer with nothing but the number.

Item EQHSPHPTIEKIALTCFTRC has what recorded amyloid nucleation score? -0.189

Item DRFGWF has what recorded amyloid nucleation score? -0.148

Item TFVLRCFSRCDGAITFQTRP has what recorded amyloid nucleation score? 1.14

Item TVIGSSRGAPLIIKSGFIIE has what recorded amyloid nucleation score? 4.25

Item SCHVTFKVFFLFAGPCREVL has what recorded amyloid nucleation score? 1.98

Item YQVMLRSCLYLLYFSMFNCL has what recorded amyloid nucleation score? 1.27

Item WMALDYGYSTSHGNCYMEIS has what recorded amyloid nucleation score? 1.23

Item SRLQLNWLQPRWY has what recorded amyloid nucleation score? 4.27

Item VQDVYENFSSPQNIGVMRAS has what recorded amyloid nucleation score? 0.956

Item SPAFQWHLYPSA has what recorded amyloid nucleation score? 0.592

Item GKNFSTMAWP has what recorded amyloid nucleation score? -1.25

Item FPNALDYLYVV has what recorded amyloid nucleation score? -0.243

Item NGLFAYVRM has what recorded amyloid nucleation score? 0.505

Item YFIDLISWL has what recorded amyloid nucleation score? 0.198

Item FILCMLMVSAGLFEQEALRY has what recorded amyloid nucleation score? 0.506

Item RGGGAEKLLQSTCNSYVVWL has what recorded amyloid nucleation score? 3.66

Item KIICFRLKSPLVWKMYDKTG has what recorded amyloid nucleation score? -0.699

Item GSDWTRMMNVLAGGGGVGSE has what recorded amyloid nucleation score? -0.484

Item LIYVLYLY has what recorded amyloid nucleation score? 0.501

Item SLVASNSQL has what recorded amyloid nucleation score? 0.06

Item VRGVSVGSYKSVAELGGTQT has what recorded amyloid nucleation score? -0.449

Item SKETAFGLSL has what recorded amyloid nucleation score? -0.368

Item SCPRVTIFCCSGILGREWGK has what recorded amyloid nucleation score? 7.19

Item QTNKLEGVANSGKIITNKSG has what recorded amyloid nucleation score? 0.021

Item HARRRCLDGFDMQGGIFM has what recorded amyloid nucleation score? 0.047

Item DAEFRHGAIIGLMVGGVVIA has what recorded amyloid nucleation score? 3.45

Item DSYWFRRLC has what recorded amyloid nucleation score? 0.22

Item LSMPMGNLEPL has what recorded amyloid nucleation score? -0.277

Item TPLFRGFIMLQPRLRCDKFA has what recorded amyloid nucleation score? 0.013

Item MKRTFRTLF has what recorded amyloid nucleation score? 0.57

Item RIHRVHRKF has what recorded amyloid nucleation score? -0.33

Item CVYGGIFYRTGYLYFEVYFY has what recorded amyloid nucleation score? 0.134

Item LGTVRVLEHEVVWHYVLEAR has what recorded amyloid nucleation score? 0.485

Item LYDFINYG has what recorded amyloid nucleation score? -0.592

Item IILCNRPMSYLRYNGARFLA has what recorded amyloid nucleation score? 0.948

Item CSRRFYESPCKEPAA has what recorded amyloid nucleation score? 0.145

Item MSKYALNLAMVDRGLSKDQN has what recorded amyloid nucleation score? -0.898

Item GLIRSSVEVMLHGVHRWDPY has what recorded amyloid nucleation score? 0.037

Item CRFMNVRYGKRMKVDNTVMA has what recorded amyloid nucleation score? -0.891

Item RWSQNMGSKSVRGTKFNLKL has what recorded amyloid nucleation score? 0.846

Item HLSVFQLDLTREVANCKSWM has what recorded amyloid nucleation score? 3.17

Item LAIFSMFALFSIFGWSNDFT has what recorded amyloid nucleation score? -0.309

Item WFDELGRDFLV has what recorded amyloid nucleation score? -0.193

Item AIYMLHRNGGGGVCEAEAVR has what recorded amyloid nucleation score? -0.38

Item KRTAHRMVRSCSLWKVRYRQ has what recorded amyloid nucleation score? 0.462

Item CLCSYYKILVYSSLVLDNAY has what recorded amyloid nucleation score? 0.58

Item RDWKSFSVCVFLIFIACNTG has what recorded amyloid nucleation score? -0.605

Item LYCMGVLPSLLAISMVWVRG has what recorded amyloid nucleation score? 2.94

Item SQYDWLKLFSNVY has what recorded amyloid nucleation score? -0.175

Item LLNAAHIEGT has what recorded amyloid nucleation score? 0.064

Item DVPGSRQVLVYFFNQIFDEM has what recorded amyloid nucleation score? 5.9

Item VGFGQSHGVFRCGVMRLRRG has what recorded amyloid nucleation score? 0.192

Item IIAIPHLTLSWTNLSMGQG has what recorded amyloid nucleation score? 3.76

Item MQVVKIGKLFG has what recorded amyloid nucleation score? -0.112

Item GISFFGGLQASFLLPLASLL has what recorded amyloid nucleation score? 0.413

###

Exercise: state measured amyloid nucleation score for each of the sequences provided.
measurement_notes: amyloid nucleation score (Sup35N fusion, yeast selection) (log enrichment); library NNK2; higher = more nucleation; inactive = no reads after selection
Keep it simple and answer with nothing but the number.

Item CNIAPASKFSIIMPRR has what recorded amyloid nucleation score? 3.74

Item CKCYTAQCWVSRNLMKRPLT has what recorded amyloid nucleation score? 0.579

Item FGMYPVVGCLDRLYWMRLYA has what recorded amyloid nucleation score? 0.539

Item RLLRLDQKQIMVRSSSAVLR has what recorded amyloid nucleation score? -0.107

Item DVVKSVPQTPL has what recorded amyloid nucleation score? 0.851

Item LGYGWFNVLTYTTI has what recorded amyloid nucleation score? -0.209

###

Exercise: state measured amyloid nucleation score for each of the substances provided.
measurement_notes: amyloid nucleation score (Sup35N fusion, yeast selection) (log enrichment); library NNK1; higher = more nucleation; inactive = no reads after selection
Keep it simple and answer with nothing but the number.

Item CNICNPI has what recorded amyloid nucleation score? -0.585

Item ASTMFQIYVHPNYTISLMLK has what recorded amyloid nucleation score? 0.44

Item IKSHNMYYGRRRGVFLGPDR has what recorded amyloid nucleation score? -0.075

Item RKYQQGSLHDSGIKNHFFRV has what recorded amyloid nucleation score? -0.97

Item QFVQAGRKLGNNVDGWKYVC has what recorded amyloid nucleation score? -0.997

Item SCRRYSYKCSVL has what recorded amyloid nucleation score? -0.16

Item LTPRRYIWTYLSWGDAGLEL has what recorded amyloid nucleation score? 1.02

Item AVSVWYYSRVRGRG has what recorded amyloid nucleation score? 0.025

Item NFELEHLEICSDVCFGCAAE has what recorded amyloid nucleation score? 1.12

Item RYLSHHP has what recorded amyloid nucleation score? 0.609

Item KLSNFKVHYCYLTSHLMLET has what recorded amyloid nucleation score? 0.053

Item FSRPWWRSWHSFFSHDEKTI has what recorded amyloid nucleation score? 0.282

Item FQSDYRRRMFVMSD has what recorded amyloid nucleation score? -1.03

Item TTFFSGIYKKASLFYRHFVL has what recorded amyloid nucleation score? -0.812

Item GAPEVPIDYGLEASRNCSKG has what recorded amyloid nucleation score? -0.61

Item FSSQYQMSAGVF has what recorded amyloid nucleation score? -0.013

Item VGTTLRFWGKLFNPVDKAIR has what recorded amyloid nucleation score? -0.619

Item RFILPVVGSSHLINSLADSL has what recorded amyloid nucleation score? -0.8

Item LILSYAN has what recorded amyloid nucleation score? 1.33

Item VIASELSSCFSLRHNVVTTS has what recorded amyloid nucleation score? -0.469

Item TFWTLVQQATVKHMLYGTFL has what recorded amyloid nucleation score? -0.663

Item DRVSCNEEFQRKCIFTVIRR has what recorded amyloid nucleation score? 1.19

Item RIIITLH has what recorded amyloid nucleation score? 0.264

Item YKGLFR has what recorded amyloid nucleation score? 0.065

Item RKSEGIDVCGYNISAIYFKC has what recorded amyloid nucleation score? 0.142

Item GYTTLTQGL has what recorded amyloid nucleation score? -0.513

Item LLRWFALGTYVSGWRWDERR has what recorded amyloid nucleation score? -0.179

Item NRVLLSEAKSQFIG has what recorded amyloid nucleation score? 0.366

Item KLESCN has what recorded amyloid nucleation score? 0.39

Item NSELFIGGDYLDIDST has what recorded amyloid nucleation score? 0.591

Item LAMFHSWGVGFATLGVKISE has what recorded amyloid nucleation score? 1.04

Item DWVYITLNGLLW has what recorded amyloid nucleation score? -0.145

Item NYRSGVLELWYGRSMPWS has what recorded amyloid nucleation score? 0.327

Item SLVRMLRHLRMDEKFLLIRY has what recorded amyloid nucleation score? 0.268

Item SHTLHDAIYGVDVQPFDTRV has what recorded amyloid nucleation score? 0.102

Item DKERSGTKQYNSYG has what recorded amyloid nucleation score? -0.039

Item YCDSWSVSFLICRSPFQNYM has what recorded amyloid nucleation score? -1.12

Item GSVVYVIQGDMKRVLGFNGM has what recorded amyloid nucleation score? 5.42

Item HCCSYLLKR has what recorded amyloid nucleation score? -0.174

Item VRYMSLWGIVSRVCGIRMER has what recorded amyloid nucleation score? 1.23

Item GGLAGTTLKLRICF has what recorded amyloid nucleation score? -1.03

Item NLILDQVNTYSLCSTIFI has what recorded amyloid nucleation score? 7.29

Item KWVIGRTVLGRADVRWSSGR has what recorded amyloid nucleation score? 1.58

Item VIGSCRTCMS has what recorded amyloid nucleation score? 0.135

Item GTFISLLLS has what recorded amyloid nucleation score? -0.077

Item VALAIIRPY has what recorded amyloid nucleation score? -0.431

Item RSSLNTCWMGSYNVLGTRTG has what recorded amyloid nucleation score? 4.39

Item IGVSVTPLLLKNKRPVTDVM has what recorded amyloid nucleation score? 1.07

Item QSAAFIIDLLTVFRKMEEVM has what recorded amyloid nucleation score? -0.666

Item LTHCAWVAFDA has what recorded amyloid nucleation score? 1.7

Item NRRMFV has what recorded amyloid nucleation score? -1.13
